# Tested on: biotinyl-Phe-oxazolone
# METHOD_DESCRIPTION: self-aminoacylation, catalytic enhancement (BFO) (fold over background); higher = more active; k-Seq, kA / k0A0; sequences stand for … in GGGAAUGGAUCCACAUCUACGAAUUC…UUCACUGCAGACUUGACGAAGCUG
This sample holds only a part of the variants without activity.
In this section we review reported self-aminoacylation values for a set of sequences.

// solved cases for self-aminoacylation follow
- SEQUENCE_RECORD: "AUUCACCUCGUUCAUCGGGUG [Fam2.2 aminoacylation ribozyme variant]"
  EXPERIMENTAL_ENDPOINT: "self-aminoacylation"
  RESULT: 26.3
- SEQUENCE_RECORD: "AUUACCCUGGUCAUCGAGCGG [Fam2.1 aminoacylation ribozyme variant]"
  EXPERIMENTAL_ENDPOINT: "self-aminoacylation"
  RESULT: 1.12
- SEQUENCE_RECORD: "CCACACUUCAAGCAAUCGGGA [Fam1B.1 aminoacylation ribozyme variant]"
  EXPERIMENTAL_ENDPOINT: "self-aminoacylation"
  RESULT: 1.46

Annotate the sequence AUUACCCUGGUGAUCGAAUGA [Fam2.1 aminoacylation ribozyme variant] with its measured self-aminoacylation.
0.432

Annotate the sequence AAGUUUGCUAAUAAUCGCAAC [Fam3.1 aminoacylation ribozyme variant] with its measured self-aminoacylation.
0.842

Annotate the sequence AAGUCUGCUAAUAGUCGUAAG [Fam3.1 aminoacylation ribozyme variant] with its measured self-aminoacylation.
49.6

Annotate the sequence CUACCUCAAACAAACGGUCUG [Fam1A.1 aminoacylation ribozyme variant] with its measured self-aminoacylation.
1.33

Annotate the sequence CCACACUUCAAGUAAUCGUUC [Fam1B.1 aminoacylation ribozyme variant] with its measured self-aminoacylation.
0.886

Annotate the sequence AGUCACCUAGGUCUUCGGGUG [Fam2.2 aminoacylation ribozyme variant] with its measured self-aminoacylation.
56.4

###

# System: biotinyl-Leu-oxazolone
# METHOD_DESCRIPTION: self-aminoacylation, catalytic enhancement (BLO) (fold over background); higher = more active; k-Seq, kA / k0A0; sequences stand for … in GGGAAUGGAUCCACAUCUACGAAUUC…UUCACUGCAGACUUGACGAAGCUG
This sample holds only a part of the variants without activity.
EXPERIMENTAL_ENDPOINT: self-aminoacylation

- SEQUENCE_RECORD: "AUUACUCUGGUCAUCGGGUGA [Fam2.1 aminoacylation ribozyme variant]"
  TGT: "biotinyl-Leu-oxazolone"
  self-aminoacylation: 11.8

Give the observed self-aminoacylation of AAGUUUGCUAAUAGGCGUAAG [Fam3.1 aminoacylation ribozyme variant] for biotinyl-Leu-oxazolone.
0.66

Give the observed self-aminoacylation of ACGUUUGCAAAUAGUCGCAAG [Fam3.1 aminoacylation ribozyme variant] for biotinyl-Leu-oxazolone.
1.29

Give the observed self-aminoacylation of CUUACCCUGGUCAUCGAGUGU [Fam2.1 aminoacylation ribozyme variant] for biotinyl-Leu-oxazolone.
24.6

Give the observed self-aminoacylation of AUCUCCCUGGUCAUCGAGUGA [Fam2.1 aminoacylation ribozyme variant] for biotinyl-Leu-oxazolone.
9.06

Give the observed self-aminoacylation of AUUACCCUGGUCGUCGGGUGA [Fam2.1 aminoacylation ribozyme variant] for biotinyl-Leu-oxazolone.
4.72

###

# Test system: biotinyl-Met-oxazolone
# METHOD_DESCRIPTION: self-aminoacylation, catalytic enhancement (BMO) (fold over background); higher = more active; k-Seq, kA / k0A0; sequences stand for … in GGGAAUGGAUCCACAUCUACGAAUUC…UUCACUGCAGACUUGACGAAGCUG
Fewer inactive variants are shown than the library holds.
EXPERIMENTAL_ENDPOINT: self-aminoacylation
Form field (numeric): enter value without unit.

// solved cases for self-aminoacylation follow
- SEQUENCE_RECORD: "AUUACCCUGGUCAUCUAGUAA [Fam2.1 aminoacylation ribozyme variant]"
  EXPERIMENTAL_ENDPOINT: "self-aminoacylation"
  NUMBER: 1.06
- SEQUENCE_RECORD: "AUUACUCUGGUCUUCGAGUGA [Fam2.1 aminoacylation ribozyme variant]"
  EXPERIMENTAL_ENDPOINT: "self-aminoacylation"
  NUMBER: 5.11
- SEQUENCE_RECORD: "AAGUUUACUAAUAGUCGCAAU [Fam3.1 aminoacylation ribozyme variant]"
  EXPERIMENTAL_ENDPOINT: "self-aminoacylation"
  NUMBER: 1.48
- SEQUENCE_RECORD: "CUACUGCAAACAAUCGGCCUG [Fam1A.1 aminoacylation ribozyme variant]"
  EXPERIMENTAL_ENDPOINT: "self-aminoacylation"
  NUMBER: 2.1
- SEQUENCE_RECORD: "CCACACUUCAUGCAAUAGGUC [Fam1B.1 aminoacylation ribozyme variant]"
  EXPERIMENTAL_ENDPOINT: "self-aminoacylation"
  NUMBER: 0.582
- SEQUENCE_RECORD: "AUUCACGUAAGUCAUCGGGUG [Fam2.2 aminoacylation ribozyme variant]"
  EXPERIMENTAL_ENDPOINT: "self-aminoacylation"
  NUMBER: 18.3

Annotate the sequence AUUUCCAUGGUCAUCGAGUGA [Fam2.1 aminoacylation ribozyme variant] with its measured self-aminoacylation.
9.56

Annotate the sequence AUGACCCUGGUCACCGAGUGA [Fam2.1 aminoacylation ribozyme variant] with its measured self-aminoacylation.
10.5

Annotate the sequence AUUACCCUGGACAUCGAGCGA [Fam2.1 aminoacylation ribozyme variant] with its measured self-aminoacylation.
1.45
